# System: Rattus norvegicus
# Protocol summary: Antidyslipidemic activity against triton-induced hyperlipidemia in Charles Foster rat assessed as reduction in plasma phospholipid level at 100 mg/kg, po after 18 hrs relative to control
# Type: functional
# Parameters: scale not given: the % may be the effect or the level left
Attribute: Activity
Unit % implied. Number only.

* CC1=C(C(=O)OC(C)(C)C)C(c2ccccc2)C=CN1c1ccc(Cl)cc1 (stereo unspecified) | 13.5
* CCOC(=O)C1=C(C)N(c2ccc(F)cc2)C=CC1c1ccccc1 (stereo unspecified) | 15.3
* CCOC(=O)C1=C(C)N(c2ccc(Cl)cc2)C=CC1c1ccccc1 (stereo unspecified) | 16.5
* CCOC(=O)C1=C(C)N(c2ccccc2)C=CC1c1ccccc1[N+](=O)[O-] (stereo unspecified) | 5.7
* COC(=O)C1=C(C)N(c2ccccc2)C=CC1c1ccccc1 (stereo unspecified) | 21.3
* COC(=O)C1=C(C)N(c2cccc(Cl)c2)C=C(C)C1c1ccccc1 (stereo unspecified) | 13.4
* Cc1ccc(C)c(OCCCC(C)(C)C(=O)O)c1 | 39.1
* CCOC(=O)C1=C(C)N(c2ccc(C)cc2)C=CC1c1ccccc1 (stereo unspecified) | 23.7

Query: Look up Activity with Rattus norvegicus for this molecule: COC(=O)C1=C(C)N(c2ccccc2)C=CC1c1ccc(OC)cc1 (stereo unspecified)
Result: 18.7

Query: Look up Activity with Rattus norvegicus for this molecule: CCOC(=O)C1=C(C)N(c2ccccc2)C=CC1c1ccccc1 (stereo unspecified)
Result: 28.5

Query: Look up Activity with Rattus norvegicus for this molecule: COC(=O)C1=C(C)N(c2ccccc2)C=C(C)C1c1ccccc1 (stereo unspecified)
Result: 11

The reported measurements were obtained from ChEMBL document CHEMBL1154745.
